I'd be grateful if you could share measured Herbicidal action against [%] LOLRI for these entries.
- Tested on: Lolium rigidum
- assay notes: Post-emergence herbicidal action against LOLRI
- Assay type: in vivo
- conditions used: 20 g a.i./ha, visual rating about 3 weeks after treatment
Answers are plain numbers, in %.

Required: Herbicidal action against [%] LOLRI, one value per compound below.
1. CSCCOC(=O)C1C=CC(NC(=O)C2(CCl)CC(c3cc(F)cc(F)c3)=NO2)C1 (centres unmarked) [Example I-60]
2. CC1(C(=O)NC2C=CC(C(=O)OCCSCc3ccccc3)C2)CC(c2cc(F)cc(F)c2)=NO1 (centres unmarked)
3. CSCCOC(=O)[C@@H]1C=C[C@H](NC(=O)C2(C(F)(F)F)CC(c3cc(F)cc(Cl)c3)=NO2)C1 (some centres unmarked)
4. CSCCOC(=O)C1C=CC(NC(=O)C2(C(F)(F)F)CC(c3cc(F)cc(C#N)c3)=NO2)C1 (mixture of isomers) [Example I-37]
5. CSCCOC(=O)C1C=CC(NC(=O)C2(C(F)(F)F)CC(c3cc(F)cc(C#N)c3)=NO2)C1 (mixture of isomers) [Example I-38]
6. CCSCCOC(=O)C1C=CC(NC(=O)C2(OC)CC(c3cc(F)cc(F)c3)=NO2)C1 (centres unmarked)

1. 80
2. 90
3. 90
4. 90
5. 90
6. 90
